# System: PC-3
# assay.name: NCI-60 one-dose screen, PC-3
# Type: cell-based
# reported.conditions: Homo sapiens; PC-3, prostate cancer; single dose 10 μM; read-out: Growth inhibition %
Reported inhibition at 10 µM values for a set of compounds
Write the number in % without appending the unit.

INSERT INTO assay_data (smiles_record, measure_unit, recorded_value) VALUES
  ('Cc1ccc(-c2nnc(N3c4ccccc4C=Cc4ccccc43)o2)cc1', '%', 41.4),
  ('Clc1ccc(-c2nnc(N3c4ccccc4C=Cc4ccccc43)o2)cc1', '%', 44.1),
  ('O=C(NNC(=O)N1c2ccccc2C=Cc2ccccc21)c1ccc2ccccc2c1', '%', 25.1);

With those in mind, consider the next compound.
Report inhibition at 10 µM for Brc1ccc(-c2nnc(N3c4ccccc4C=Cc4ccccc43)o2)cc1 please.
48.5

* * *

# Tested on: LOX IMVI
# assay.name: NCI-60 one-dose screen, LOX IMVI
# Assay type: cell-based
# reported.conditions: Homo sapiens, melanoma, single dose 10 μM, read-out: Growth inhibition %
# Experimental: Anti-proliferative effects of the counterparts 4a–g and 5a–g were screened against 60 human cancer cell lines, following the Developmental Therapeutics Program protocol, National Cancer Institute[35]. The anti-tumour activity of the fourteen synthesised congeners was investigated at the NCI against a panel of 60 cancer cell lines (NCI-60 Cell One-Dose Screen). The tested dibenzo[b,f]azepine derivatives were screened at a single dose level (10 μM), Table 1.
# reported inhibition at 10 µM; entries follow

Consider the worked cases shown below.
INSERT INTO measurements (smiles_record, recorded_endpoint, recorded_value) VALUES
  ('O=C(NNC(=O)N1c2ccccc2C=Cc2ccccc21)c1ccccc1', 'inhibition at 10 µM', '< 10%'),
  ('O=C(NNC(=O)N1c2ccccc2C=Cc2ccccc21)c1ccc2ccccc2c1', 'inhibition at 10 µM', '< 10%'),
  ('Brc1ccc(-c2nnc(N3c4ccccc4C=Cc4ccccc43)o2)cc1', 'inhibition at 10 µM', '38.8%'),
  ('O=C(NNC(=O)N1c2ccccc2C=Cc2ccccc21)c1ccc([N+](=O)[O-])cc1', 'inhibition at 10 µM', '< 10%'),
  ('Clc1ccc(-c2nnc(N3c4ccccc4C=Cc4ccccc43)o2)cc1', 'inhibition at 10 µM', '35.7%');

Any idea what inhibition at 10 µM came out for O=C(NNC(=O)N1c2ccccc2C=Cc2ccccc21)c1ccc(Br)cc1 on LOX IMVI?
< 10%

Proceed to O=C(Cc1ccccc1)NNC(=O)N1c2ccccc2C=Cc2ccccc21
< 10%

Same again, this time with O=C(NNC(=O)N1c2ccccc2C=Cc2ccccc21)c1ccc(Cl)cc1
< 10%

Also Cc1ccc(-c2nnc(N3c4ccccc4C=Cc4ccccc43)o2)cc1 , if possible.
25.6%

And for Cc1ccc(C(=O)NNC(=O)N2c3ccccc3C=Cc3ccccc32)cc1 ?
< 10%

Now give it for C1=Cc2ccccc2N(c2nnc(-c3ccccc3)o2)c2ccccc21 too.
< 10%

And then C1=Cc2ccccc2N(c2nnc(Cc3ccccc3)o2)c2ccccc21 , what is it?
< 10%

What do you get for O=[N+]([O-])c1ccc(-c2nnc(N3c4ccccc4C=Cc4ccccc43)o2)cc1 ?
< 10%

Query C1=Cc2ccccc2N(c2nnc(-c3ccc4ccccc4c3)o2)c2ccccc21 next
18.7%

* * *

Listed next: entries and their corresponding inhibition at 10 µM.
# System: PC-3
# assay.name: NCI-60 one-dose screen, PC-3
# Format: cell-based
# reported.conditions: Homo sapiens; PC-3, prostate cancer; single dose 10 μM; read-out: Growth inhibition %
Provide only the numeric value, understood in %.

INSERT INTO results (smiles_record, recorded_value) VALUES
  ('C1=Cc2ccccc2N(c2nnc(-c3ccc4ccccc4c3)o2)c2ccccc21', 40.9);

// below: inhibition at 10 µM requested for another compound
// returns reported inhibition at 10 µM for input O=[N+]([O-])c1ccc(-c2nnc(N3c4ccccc4C=Cc4ccccc43)o2)cc1
24.6
